For each record, write down the corresponding shrunken log2 fold change.
# System: Escherichia coli TOP10;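 further: peptides expressed intracellularly from a pBAD plasmid library in pooled LB shake-flask culture, induced with 0.3% L-arabinose, DNA abundance read by NGS, three biological replicates, DESeq2 with apeglm shrinkage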
# procedureSummary: shrunken log2 fold change of peptide-encoding DNA abundance (4.5 h post-induction vs induction); higher = less antimicrobial activity (less host growth inhibition)
# conditionsUsed: time post-induction: 4.5 h; library: site-saturation at positions 5, 18, 19, 20
Response field accepts a number only; no unit should be typed.

**Query** Which shrunken log2 fold change value is on record for `RRIRFRPPRLPRPRPRPQAAPRP` ?
**Result** 1.04

**Query** Which shrunken log2 fold change value is on record for `RRIRKRPPRLPRPRPRPQYGPRP` ?
**Result** -0.0781

**Query** Which shrunken log2 fold change value is on record for `RRIRIRPPRLPRPRPRPHYPPRP` ?
**Result** -0.32

**Query** Which shrunken log2 fold change value is on record for `RRIRFRPPRLPRPRPRPRPFPRP` ?
**Result** 0.401

**Query** Which shrunken log2 fold change value is on record for `RRIRVRPPRLPRPRPRPCDAPRP` ?
**Result** 0.121

**Query** Which shrunken log2 fold change value is on record for `RRIRKRPPRLPRPRPRPHKEPRP` ?
**Result** -0.0849

**Query** Which shrunken log2 fold change value is on record for `RRIRARPPRLPRPRPRPAGCPRP` ?
**Result** 0.648

**Query** Which shrunken log2 fold change value is on record for `RRIRCRPPRLPRPRPRPKLKPRP` ?
**Result** -0.16

**Query** Which shrunken log2 fold change value is on record for `RRIRVRPPRLPRPRPRPNYCPRP` ?
**Result** -0.157

**Query** Which shrunken log2 fold change value is on record for `RRIRNRPPRLPRPRPRPMRPPRP` ?
**Result** 0.537

**Query** Which shrunken log2 fold change value is on record for `RRIRMRPPRLPRPRPRPHIVPRP` ?
**Result** 0.0532

**Query** Which shrunken log2 fold change value is on record for `RRIRSRPPRLPRPRPRPHWFPRP` ?
**Result** -0.0389

**Query** Which shrunken log2 fold change value is on record for `RRIRERPPRLPRPRPRPAINPRP` ?
**Result** -0.257

**Query** Which shrunken log2 fold change value is on record for `RRIRWRPPRLPRPRPRPKQLPRP` ?
**Result** -0.0021

**Query** Which shrunken log2 fold change value is on record for `RRIRLRPPRLPRPRPRPERPPRP` ?
**Result** 0.157

**Query** Which shrunken log2 fold change value is on record for `RRIRTRPPRLPRPRPRPKIPPRP` ?
**Result** -0.21

**Query** Which shrunken log2 fold change value is on record for `RRIRWRPPRLPRPRPRPEPAPRP` ?
**Result** 1.18

**Query** Which shrunken log2 fold change value is on record for `RRIRIRPPRLPRPRPRPQTLPRP` ?
**Result** -0.129

**Query** Which shrunken log2 fold change value is on record for `RRIRMRPPRLPRPRPRPATTPRP` ?
**Result** 0.538

**Query** Which shrunken log2 fold change value is on record for `RRIRWRPPRLPRPRPRPVTNPRP` ?
**Result** 0.266

**Query** Which shrunken log2 fold change value is on record for `RRIRPRPPRLPRPRPRPMMTPRP` ?
**Result** -0.146

**Query** Which shrunken log2 fold change value is on record for `RRIRSRPPRLPRPRPRPQAHPRP` ?
**Result** -0.0418

**Query** Which shrunken log2 fold change value is on record for `RRIRERPPRLPRPRPRPPKHPRP` ?
**Result** -0.0654

**Query** Which shrunken log2 fold change value is on record for `RRIRMRPPRLPRPRPRPIAIPRP` ?
**Result** 0.226

**Query** Which shrunken log2 fold change value is on record for `RRIRTRPPRLPRPRPRPMIRPRP` ?
**Result** -0.0798

**Query** Which shrunken log2 fold change value is on record for `RRIRIRPPRLPRPRPRPKTFPRP` ?
**Result** -0.0578

**Query** Which shrunken log2 fold change value is on record for `RRIRCRPPRLPRPRPRPNSTPRP` ?
**Result** -0.76

**Query** Which shrunken log2 fold change value is on record for `RRIRCRPPRLPRPRPRPWCGPRP` ?
**Result** -0.288

**Query** Which shrunken log2 fold change value is on record for `RRIRGRPPRLPRPRPRPYQTPRP` ?
**Result** 0.0825

**Query** Which shrunken log2 fold change value is on record for `RRIRWRPPRLPRPRPRPVDFPRP` ?
**Result** 0.0271

**Query** Which shrunken log2 fold change value is on record for `RRIRIRPPRLPRPRPRPYLMPRP` ?
**Result** -0.143

**Query** Which shrunken log2 fold change value is on record for `RRIRLRPPRLPRPRPRPLMQPRP` ?
**Result** -0.0571

Entry source: the supplement of paper PMC9112550
